A collection of sequences and their measured phosphorylation enrichment
Tested system: FGFR1 (UniProt P11362)
Sequence (P11362 whole entry, looked up): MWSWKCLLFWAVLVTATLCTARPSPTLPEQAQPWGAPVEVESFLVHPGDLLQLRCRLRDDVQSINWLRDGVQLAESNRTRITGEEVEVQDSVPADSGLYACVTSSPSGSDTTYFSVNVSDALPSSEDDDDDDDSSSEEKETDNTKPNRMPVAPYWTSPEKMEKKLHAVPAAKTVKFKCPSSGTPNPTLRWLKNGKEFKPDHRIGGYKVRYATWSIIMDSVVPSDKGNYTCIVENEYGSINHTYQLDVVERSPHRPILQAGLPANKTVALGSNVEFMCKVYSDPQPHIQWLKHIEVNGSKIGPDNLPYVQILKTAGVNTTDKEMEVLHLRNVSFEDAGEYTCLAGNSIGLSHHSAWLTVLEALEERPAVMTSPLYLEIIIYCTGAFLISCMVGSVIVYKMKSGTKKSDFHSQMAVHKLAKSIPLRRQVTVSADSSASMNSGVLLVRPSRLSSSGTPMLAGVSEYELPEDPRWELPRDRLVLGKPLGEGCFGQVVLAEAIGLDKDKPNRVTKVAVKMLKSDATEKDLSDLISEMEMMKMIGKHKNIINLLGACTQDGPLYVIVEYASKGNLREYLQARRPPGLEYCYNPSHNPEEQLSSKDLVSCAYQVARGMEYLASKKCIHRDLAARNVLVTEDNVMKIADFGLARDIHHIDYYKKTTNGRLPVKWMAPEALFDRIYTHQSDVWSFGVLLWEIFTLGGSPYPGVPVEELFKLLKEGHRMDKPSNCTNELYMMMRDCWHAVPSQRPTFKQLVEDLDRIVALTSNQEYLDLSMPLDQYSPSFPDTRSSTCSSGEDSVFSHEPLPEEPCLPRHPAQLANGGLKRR
Test details: phosphorylation enrichment, bacterial display (enrichment ratio); higher = better substrate or ligand; peptides without Tyr show the background;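 also: 11-residue human phosphosite peptides and single-mutation variants displayed on the E. coli surface, counted by deep sequencing, each peptide's frequency after selection divided by its frequency in the unselected input library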;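 also: frequency after pTyr selection over input frequency; kinase dosed for 20-30% of maximal phosphorylation in three min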
Quantity: phosphorylation enrichment

| Input sequence | Quantity | Observed measurement |
| --- | --- | --- |
| QRKPSYNQLAS [BRCA2_Y71] | phosphorylation enrichment | 0.543 |
| NVADHYGVYKP [ATP6V0D2_Y271] | phosphorylation enrichment | 0.461 |
| TIMTDYNPNYC [ALK_Y1092] | phosphorylation enrichment | 0.715 |
| RRGMPYGGCGD [TGM1_Y312_R315C] | phosphorylation enrichment | 0.634 |
| SLLTDYSPQLQ [OTC_Y345] | phosphorylation enrichment | 0.447 |
| KGKLIYLLGDS [NXPE1_Y350] | phosphorylation enrichment | 0.434 |
| EWCSPYGLTPR [GRIN3B_Y601_R598C] | phosphorylation enrichment | 0.474 |
| KAPVDYIRKLQ [MITF_Y360_S357P] | phosphorylation enrichment | 0.328 |
| MSDVPYVMNRG [ACAT1_Y161_N158D] | phosphorylation enrichment | 0.403 |
| ILTLKYPIELG [ACTA1_Y71_H75L] | phosphorylation enrichment | 0.47 |
| FLGRDYLETLM [DUS3L_Y610_YF] | phosphorylation enrichment | 0.48 |
| FAFQLYDLDRD [CHP2_Y123_YF] | phosphorylation enrichment | 0.467 |
| CITIHYNFMCN [TP53_Y234_T230I_YF] | phosphorylation enrichment | 0.582 |
| STTIHYNYMCN [TP53_Y234_C229S] | phosphorylation enrichment | 0.629 |
| QFRFIYMAVQH [PTPN11_Y515_YF] | phosphorylation enrichment | 0.544 |
| LGNIVYSSLCG [BCOR_Y90_P85L] | phosphorylation enrichment | 1.05 |
| VKPENYRRPDI [VHL_Y175_L178P] | phosphorylation enrichment | 0.388 |
| RTVPLYESPRK [DDB1_Y718] | phosphorylation enrichment | 0.374 |
| SYVVRYNQPRV [GRIN2D_Y736_M733V] | phosphorylation enrichment | 0.452 |
| EIIPFYGMSTF [FNDC3B_Y175_YF] | phosphorylation enrichment | 0.461 |
| ASMAKYYASGI [ACADSB_Y372_E376G] | phosphorylation enrichment | 0.36 |
| AHEALYLEADL [CENPF_Y1920_E1915A] | phosphorylation enrichment | 2.2 |
| SERNNYSRVAN [CWC22_Y797] | phosphorylation enrichment | 0.435 |
| ILDEAYVMAGA [ERBB2_Y772_V777A] | phosphorylation enrichment | 0.639 |
| GESLTYASTTF [C1orf162_Y120] | phosphorylation enrichment | 0.401 |
| VERRVYAEDPF [PCCA_Y401_C398R_YF] | phosphorylation enrichment | 0.429 |
| IVGRLYRLLTE [SETX_Y1978_L1976R] | phosphorylation enrichment | 0.418 |
| CTTIHYNYMYN [TP53_Y234_C238Y] | phosphorylation enrichment | 0.877 |
| QRKRAYVEIEY [MAK16_Y282] | phosphorylation enrichment | 0.623 |
| FEKNVYVDKNL [PTCHD3_Y688] | phosphorylation enrichment | 0.419 |
| HGEAFYSEVKP [PAK5_Y182_YF] | phosphorylation enrichment | 3.57 |
| LSSISYVGCSL [ADGRD1_Y571] | phosphorylation enrichment | 0.719 |
| KIEGVYARDET [RPL35A_Y34] | phosphorylation enrichment | 0.437 |
| DKPENYRRLDI [VHL_Y175_V170D] | phosphorylation enrichment | 0.558 |
| DRLASYPEKVR [KRT13_Y118_L119P] | phosphorylation enrichment | 0.403 |
| ENFSEYQEISV [HEMGN_Y150_A154S] | phosphorylation enrichment | 1.89 |
| DGTIVCTGLET [USH2A_Y4487_Y4487C] | phosphorylation enrichment | 0.509 |
| HFGCVYFGTLL [MET_Y1093_H1094Y_YF] | phosphorylation enrichment | 1.01 |
| DAVAVYHGKIS [SH2D1A_Y7] | phosphorylation enrichment | 0.388 |
| SVCPDYDLCSV [SQSTM1_Y148] | phosphorylation enrichment | 0.661 |
| RPQDGFRIVQH [PTPRT_Y1329_Y1329F] | phosphorylation enrichment | 0.43 |
| QDDFSYPSRQM [LDLR_Y847_G844D_YF] | phosphorylation enrichment | 0.425 |
| PGGKIYISPLK [RB1_Y805_N803K] | phosphorylation enrichment | 0.45 |
| DDPRTYQKFGF [OAS1_Y362_R361T_YF] | phosphorylation enrichment | 0.473 |
| REVVNYVQKRN [RMI1_Y450] | phosphorylation enrichment | 0.36 |
| KKHIPYKEHKS [CSNK1G1_Y205_R206K] | phosphorylation enrichment | 0.942 |
| SGGLDYGMVGG [TNRC6B_Y1382_M1380L] | phosphorylation enrichment | 0.446 |
| QRIYQYIRSRF [DYRK1B_Y273_Q275R] | phosphorylation enrichment | 0.677 |
| LNYNEYFRDLN [HPRT1_Y198_D194N] | phosphorylation enrichment | 1.29 |
| STASGYSDVTD [DTX2_Y425] | phosphorylation enrichment | 0.497 |
| IDDNEYAYLKA [HNF4A_Y286] | phosphorylation enrichment | 1 |
| SSYPDYLAAVD [GLB1_Y154_D151Y] | phosphorylation enrichment | 0.647 |
| GMTLSYLFREP [NDUFS8_Y74] | phosphorylation enrichment | 0.606 |
| NNHGNYIVRLG [ETFDH_Y172] | phosphorylation enrichment | 0.456 |
| NDKLCYEVSSP [CDH13_Y66_R65C] | phosphorylation enrichment | 0.514 |
| PCPANYFAFKI [FAM3D_Y65] | phosphorylation enrichment | 9.03 |
| PVGDAYKKKGL [NMNAT1_Y55] | phosphorylation enrichment | 0.651 |
